The reported numbers originate from the supplement of paper PMC10126150.

Tested on: ATP;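 note: ATP exposure 15 min at 22 °C before imaging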
Assay Text: switch fluorescence ratio, 500 uM ATP over buffer (Cy3 cluster intensity, sum of 5 cycles each) (fold (ratio)); higher = stronger signal-on switching upon ATP binding; sequences stand for … in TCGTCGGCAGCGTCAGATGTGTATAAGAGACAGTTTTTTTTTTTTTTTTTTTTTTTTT…TC
Measurement Parameters: aptamer strand: ATP DNA aptamer (quencher-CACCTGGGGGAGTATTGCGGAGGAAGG + anchor), 100 nM annealed; ATP concentration: 500 uM
What switch fluorescence ratio was measured for each of the following?

Entry GGTTCGGCTG — recorded switch fluorescence ratio = 0.982

Entry TGACCCGTAC — recorded switch fluorescence ratio = 2.64

Entry GGCCATTGTG — recorded switch fluorescence ratio = 0.982

Entry TTTGTTCCTC — recorded switch fluorescence ratio = 1.1

Entry GACATGGGAT — recorded switch fluorescence ratio = 1.01

Entry TAATTAATTT — recorded switch fluorescence ratio = 1.02

Entry GTATGGGTGT — recorded switch fluorescence ratio = 0.971

Entry AGTTTTGAAA — recorded switch fluorescence ratio = 0.991

Entry ACAGTCGACT — recorded switch fluorescence ratio = 1.03

Entry TGTGTTGTGG — recorded switch fluorescence ratio = 0.997

Entry TTTTTGGACC — recorded switch fluorescence ratio = 1.1

Entry AAGTTGTCTT — recorded switch fluorescence ratio = 0.999

Entry CTGTTGAAAA — recorded switch fluorescence ratio = 1.07

Entry GGGGGAATA — recorded switch fluorescence ratio = 0.993

Entry GATTGGAACG — recorded switch fluorescence ratio = 0.976

Entry GGGGGAAGGA — recorded switch fluorescence ratio = 0.995

Entry GTGCCTGATG — recorded switch fluorescence ratio = 1.05

Entry GTTAAAAGGT — recorded switch fluorescence ratio = 1

Entry GGGAATAAGC — recorded switch fluorescence ratio = 0.978

Entry AAGTTGCGTT — recorded switch fluorescence ratio = 1.01

Entry TTTTTGCTTC — recorded switch fluorescence ratio = 1.02

Entry TACGGGGCGG — recorded switch fluorescence ratio = 1.36

Entry GAAACGGGGG — recorded switch fluorescence ratio = 1.01

Entry AGAGGGGGTT — recorded switch fluorescence ratio = 0.971

Entry CTTGAAAGAT — recorded switch fluorescence ratio = 0.998

Entry CTTTTTTGAT — recorded switch fluorescence ratio = 0.983

Entry TGTTTGACAT — recorded switch fluorescence ratio = 0.98

Entry CCATTCTTGT — recorded switch fluorescence ratio = 1.04

Entry TTTCTGGCGA — recorded switch fluorescence ratio = 1.05

Entry TCAGGAGGGC — recorded switch fluorescence ratio = 0.999

Entry AACGAGTCGT — recorded switch fluorescence ratio = 0.989

Entry CGCTTTGGAA — recorded switch fluorescence ratio = 0.964

Entry AATATTGGGG — recorded switch fluorescence ratio = 0.981

Entry CTGTTACTGT — recorded switch fluorescence ratio = 0.986

Entry AAGAGTGTCG — recorded switch fluorescence ratio = 0.921

Entry GGTTAAGGTG — recorded switch fluorescence ratio = 1.28

Entry ATTTACGGTG — recorded switch fluorescence ratio = 1

Entry TTGCTAGTTG — recorded switch fluorescence ratio = 0.994

Entry AAATGGGTGG — recorded switch fluorescence ratio = 0.997

Entry ACCATTTTTG — recorded switch fluorescence ratio = 0.985

Entry TTATGGGAGA — recorded switch fluorescence ratio = 1.04

Entry GAGGAGCGTT — recorded switch fluorescence ratio = 0.98

Entry GGCTTTTACT — recorded switch fluorescence ratio = 1.04

Entry GGGAGCGTTG — recorded switch fluorescence ratio = 1.01

Entry ATATGTTGTC — recorded switch fluorescence ratio = 0.894

Entry GTGAGTTGGG — recorded switch fluorescence ratio = 1.01

Entry GCCGTAGTAA — recorded switch fluorescence ratio = 1.68

Entry TGAAACATTT — recorded switch fluorescence ratio = 0.975

Entry CAGGGCGGA — recorded switch fluorescence ratio = 0.993

Entry TTGGGTGAGC — recorded switch fluorescence ratio = 0.994

Entry AGTCTAAACT — recorded switch fluorescence ratio = 1.02

Entry GAGAGGAAAT — recorded switch fluorescence ratio = 1

Entry GGACGGCTGC — recorded switch fluorescence ratio = 1.02

Entry CAGATTAAGT — recorded switch fluorescence ratio = 0.992

Entry AAATTAGATG — recorded switch fluorescence ratio = 1.01

Entry GTTTGTCACC — recorded switch fluorescence ratio = 1.03

Entry GAACGTCTAC — recorded switch fluorescence ratio = 1.28

Entry CGGGTTTTTG — recorded switch fluorescence ratio = 0.994

Entry AATCGGGCAG — recorded switch fluorescence ratio = 1.04

Entry AAATTTCATT — recorded switch fluorescence ratio = 1

Entry GTTCGGTATG — recorded switch fluorescence ratio = 0.984

Entry TGGGGGCAAG — recorded switch fluorescence ratio = 0.987

Entry TGAGTTAAGG — recorded switch fluorescence ratio = 0.986

Entry TCTATGGTGA — recorded switch fluorescence ratio = 1.04

Entry ATACCTAGCT — recorded switch fluorescence ratio = 1.05

Entry TGGTGAAAAG — recorded switch fluorescence ratio = 0.97

Entry AGGAGACAAG — recorded switch fluorescence ratio = 0.948

Entry TGAGACTGGT — recorded switch fluorescence ratio = 0.999
